- System Tested: HLA-B*35:01
- Assay Protocol: IEDB peptide-MHC binding, purified MHC/direct/fluorescence; filed as Kd, often an IC50 or EC50 that approximates it; bounds were set here for any values at or beyond the usual limits of such assays
- Condition Notes: source organism: Tick-borne encephalitis virus
Property Name: pKd
Entry type: numeric. Quantity: pKd, the -log10 of concentration in molar units.

# query: pKd of entry WPWNAREDV
6.99

====

- System Tested: HLA-A*01:01
- Assay Protocol: IEDB peptide-MHC binding, purified MHC/direct/fluorescence; filed as Kd, often an IC50 or EC50 that approximates it; bounds were set here for any values at or beyond the usual limits of such assays
- Condition Notes: source organism: Pseudomonas aeruginosa
pKd: −log10 of the molar value.
Property Name: pKd

GEDDDMLPW | ≤ 4.70

Let's switch to this sequence now.
# query: pKd of entry SEYKAAGYL
≤ 4.70

====

- System Tested: HLA-B*18:01
- Assay Protocol: IEDB peptide-MHC binding, purified MHC/competitive/fluorescence; filed as Kd, often an IC50 or EC50 that approximates it; bounds were set here for any values at or beyond the usual limits of such assays
- Condition Notes: source organism: Human immunodeficiency virus 1
Property Name: pKd
Entry type: numeric. Quantity: pKd, the -log10 of concentration in molar units.

# query: pKd of entry RSLFNTIAVLY
5.83

====

- System Tested: HLA-A*69:01
- Assay Protocol: IEDB peptide-MHC binding, purified MHC/direct/fluorescence; filed as Kd, often an IC50 or EC50 that approximates it; bounds were set here for any values at or beyond the usual limits of such assays
- Condition Notes: source organism: Influenza A virus (A/chicken/Vietnam/5/2003(H5N1))
Property Name: Kd

Find Kd (HLA-A*69:01) for the entry RVDKLTQGR
≥ 20 µM

====

- System Tested: HLA-B*18:01
- Assay Protocol: IEDB peptide-MHC binding, purified MHC/competitive/fluorescence; filed as Kd, often an IC50 or EC50 that approximates it; bounds were set here for any values at or beyond the usual limits of such assays
- Condition Notes: source organism: Bacillus anthracis str. A0488
Property Name: Kd

# query: Kd of entry KLWASFFQG
≥ 20 µM

====

- System Tested: HLA-A*29:02
- Assay Protocol: IEDB peptide-MHC binding, purified MHC/competitive/radioactivity; filed as Kd, often an IC50 or EC50 that approximates it; bounds were set here for any values at or beyond the usual limits of such assays
- Condition Notes: source organism: Mammarenavirus choriomeningitidis
Property Name: pKd
Entry type: numeric. Quantity: pKd, the -log10 of concentration in molar units.

# query: pKd of entry WCSQTNYQY
6.69

====

- System Tested: HLA-B*18:01
- Assay Protocol: IEDB peptide-MHC binding, purified MHC/competitive/radioactivity; filed as Kd, often an IC50 or EC50 that approximates it; bounds were set here for any values at or beyond the usual limits of such assays
- Condition Notes: source organism: Lymphocytic choriomeningitis virus (strain Armstrong)
Property Name: pKd
Entry type: numeric. Quantity: pKd, the -log10 of concentration in molar units.

# query: pKd of entry KDLQRLRSL
5.23

====

- System Tested: HLA-A*03:01
- Assay Protocol: IEDB peptide-MHC binding, purified MHC/competitive/fluorescence; bounds were set here for any values at or beyond the usual limits of such assays
- Condition Notes: source organism: Sudan ebolavirus
Property Name: IC50 (µM)
Respond with the bare value in µM.

Find IC50 (HLA-A*03:01) for the entry LGLRKRSRR
6.72

Just for reference, the Immune Epitope Database (IEDB) is where these values come from.
